Test system: K24384-001-R-PDC complex spheroids, viability;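 also: spheroids exposed to compounds for seven days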
Assay: Anticancer human tumor K24384-001-R-PDC patient-derived pancreatic adenocarcinoma cell line growth inhibition [GQUAD]
Details: second compound 3.16 µM; first compound 0.1 µM; active compounds read low
Decide using viability, T/C alone. Strictly below 40%: Condition met. Equal to or above 40%: Condition not met.

[[record]]
compound = "C=CCn1c(=O)c2cnc(Nc3ccc(N4CCN(C)CC4)cc3)nc2n1-c1cccc(C(C)(C)O)n1 + CN(C)c1ccc(Nc2c3ccc(NC(=O)CCN4CCCC4)cc3nc3cc(NC(=O)CCN4CCCC4)ccc23)cc1"
target_of_assay = "K24384-001-R-PDC complex spheroids, viability"
label_class = "Condition not met"

[[record]]
compound = "COc1ncnc(C2CC2)c1-c1ncc2cnn(Cc3ccc(-c4nc(C(F)(F)F)cn4C(C)C)cc3)c2n1 + CN(C)c1ccc(Nc2c3ccc(NC(=O)CCN4CCCC4)cc3nc3cc(NC(=O)CCN4CCCC4)ccc23)cc1"
target_of_assay = "K24384-001-R-PDC complex spheroids, viability"
label_class = "Condition not met"

[[record]]
compound = "COc1ncnc(C2CC2)c1-c1ncc2cnn(Cc3ccc(-c4nc(C(F)(F)F)cn4C(C)C)cc3)c2n1 + Cc1cnc(CNC(=O)c2c(=O)c3ccc(N4CCCN(C)CC4)nc3n3c2sc2ccccc23)cn1"
target_of_assay = "K24384-001-R-PDC complex spheroids, viability"
label_class = "Condition met"

[[record]]
compound = "Cc1cccc(N(C)C(=O)C2C(O)CCN2c2nc(C)cc(C(F)(F)F)c2C#N)c1 (stereo not given) + Cc1[nH]c2ccc(F)cc2c1-c1nc2c3cccnc3c3ncccc3c2[nH]1"
target_of_assay = "K24384-001-R-PDC complex spheroids, viability"
label_class = "Condition not met"

[[record]]
compound = "CC1COCCN1c1cc(-c2ccnn2C)c2ccnc(-c3ccn[nH]3)c2n1 (stereo not given) + Cc1cnc(CNC(=O)c2c(=O)c3ccc(N4CCCN(C)CC4)nc3n3c2sc2ccccc23)cn1"
target_of_assay = "K24384-001-R-PDC complex spheroids, viability"
label_class = "Condition met"

[[record]]
compound = "O=C(c1cc(Cc2n[nH]c(=O)c3ccccc23)ccc1F)N1CCN(C(=O)C2CC2)CC1 + Cc1[nH]c2ccc(F)cc2c1-c1nc2c3cccnc3c3ncccc3c2[nH]1"
target_of_assay = "K24384-001-R-PDC complex spheroids, viability"
label_class = "Condition not met"

[[record]]
compound = "COc1cccc2c1C(=O)c1c(O)c3c(c(O)c1C2=O)CC(O)(C(=O)CO)CC3OC1CC(N)C(O)C(C)O1 (stereo not given) + Cc1cnc(CNC(=O)c2c(=O)c3ccc(N4CCCN(C)CC4)nc3n3c2sc2ccccc23)cn1"
target_of_assay = "K24384-001-R-PDC complex spheroids, viability"
label_class = "Condition not met"

[[record]]
compound = "C#Cc1c(F)ccc2cc(O)cc(-c3ncc4c(N5CC6CCC(C5)N6)nc(OCC56CCCN5CC(F)C6)nc4c3F)c12 (stereo not given) + CN(C)c1ccc(Nc2c3ccc(NC(=O)CCN4CCCC4)cc3nc3cc(NC(=O)CCN4CCCC4)ccc23)cc1"
target_of_assay = "K24384-001-R-PDC complex spheroids, viability"
label_class = "Condition not met"

[[record]]
compound = "CC1COCCN1c1cc(-c2ccnn2C)c2ccnc(-c3ccn[nH]3)c2n1 (stereo not given) + CN(C)c1ccc(Nc2c3ccc(NC(=O)CCN4CCCC4)cc3nc3cc(NC(=O)CCN4CCCC4)ccc23)cc1"
target_of_assay = "K24384-001-R-PDC complex spheroids, viability"
label_class = "Condition not met"

